test: Pharmacokinetic test for Lazertinib mesylate and free-base in beagle dogs; assay type: in vivo; conditions: male, blood, 5 mg/kg; beagle dog, oral 5 mg/2 mL/kg in 0.5% methyl cellulose; read-out: Area under the blood concentration curve (AUClast)
measured_parameter: AUC(0-t) (ng·h/mL)
Value expressed in ng·h/mL; do not type the unit.

If you can, please state the reported AUC(0-t) value of C=CC(=O)Nc1cc(Nc2nccc(-n3cc(CN(C)C)c(-c4ccccc4)n3)n2)c(OC)cc1N1CCOCC1 [Lazertinib free-base] . 379

* * *

assay: Comparative pharmacokinetic test in normal rats; format: in vivo, rats (SD rat); details: male, SD, blood, 30 mg/kg; Normal rat, oral 30 mg/5 mL/kg in 0.5% methyl cellulose; read-out: Maximum blood concentration (Cmax)
measured_parameter: Cmax
Write the numeric value and append its unit.

If you can, please state the reported Cmax value of C=CC(=O)Nc1cc(Nc2nccc(-n3cc(CN(C)C)c(-c4ccccc4)n3)n2)c(OC)cc1N1CCOCC1 [Lazertinib free-base] . 726 ng/mL

* * *

assay: Solubility test; assay type: physicochemical; details: pH 7.0 buffer solution, aqueous buffer, thermodynamic from solid, pH 7.0 buffer, 37° C.
measured_parameter: solubility at 12 h (µg/mL)
Value expressed in µg/mL; do not type the unit.

If you can, please state the reported solubility at 12 h value of C=CC(=O)Nc1cc(Nc2nccc(-n3cc(CN(C)C)c(-c4ccccc4)n3)n2)c(OC)cc1N1CCOCC1 [Lazertinib free-base] . 1

* * *

experiment: Solubility test; type: physicochemical; settings: pH 3.0 buffer solution, aqueous buffer, thermodynamic from solid, pH 3.0 buffer, 37° C.
measured_parameter: solubility at 12 h (µg/mL)
Value expressed in µg/mL; do not type the unit.

If you can, please state the reported solubility at 12 h value of C=CC(=O)Nc1cc(Nc2nccc(-n3cc(CN(C)C)c(-c4ccccc4)n3)n2)c(OC)cc1N1CCOCC1 [Lazertinib free-base] . 1900

* * *

Test: Solubility test
Type: physicochemical
Details: fassgf or other biorelevant, thermodynamic from solid, Artificial gastric juice (FaSSGF), 37° C.
Experimental: In addition, 100 mg of Lazertinib free-base (prepared in the same manner as the method described in WO 2016/060443) was tested under the same conditions.
measured_parameter: solubility at 12 h (µg/mL)
Value expressed in µg/mL; do not type the unit.

If you can, please state the reported solubility at 12 h value of C=CC(=O)Nc1cc(Nc2nccc(-n3cc(CN(C)C)c(-c4ccccc4)n3)n2)c(OC)cc1N1CCOCC1 [Lazertinib free-base] . 1500

* * *

test: Solubility test; type: physicochemical; conditions: organic solvent or mixture, thermodynamic from solid, Ethanol, 37° C.
measured_parameter: solubility at 12 h (µg/mL)
Value expressed in µg/mL; do not type the unit.

If you can, please state the reported solubility at 12 h value of C=CC(=O)Nc1cc(Nc2nccc(-n3cc(CN(C)C)c(-c4ccccc4)n3)n2)c(OC)cc1N1CCOCC1 [Lazertinib free-base] . 599

* * *

assay: Solubility test; format: physicochemical; settings: pH 1.2 buffer solution, simulated gastric fluid, thermodynamic from solid, pH 1.2 buffer, 37° C.
measured_parameter: solubility at 12 h
Write the numeric value and append its unit.

If you can, please state the reported solubility at 12 h value of C=CC(=O)Nc1cc(Nc2nccc(-n3cc(CN(C)C)c(-c4ccccc4)n3)n2)c(OC)cc1N1CCOCC1 [Lazertinib free-base] . 4400 µg/mL
